# Target Or Test System: RPL12 peptide dimethylated on lysine 3 (D. melanogaster, UniProt Q9W1B9, dimethyl-lysine at 3 (K3me2))
# Assay Summary: SPR
Experimental Readout: Kd (µM)
Answers are plain numbers, in µM.

Prompt: Dear colleague, I am looking for the recorded Kd of the following binder: GST-CortoCD (Corto chromodomain fused to GST) (domain or fragment) TASSNSNAAPAPSPQKDYSIPLHVDCSVEYELPNQPKPPAGQRVEPLLMIHPCYFRKMESQRRSPFVNNMHATARAV
Completion: 238
